The origin of these recorded values is patent US20030096379A1.

studySystem: synAAAD (synthetic gene based on pkAAAD protein sequence) (Sus scrofa)
Construct: made in house; host or cells: E. coli (pET-15 vector)
Sequence (P80041 whole entry): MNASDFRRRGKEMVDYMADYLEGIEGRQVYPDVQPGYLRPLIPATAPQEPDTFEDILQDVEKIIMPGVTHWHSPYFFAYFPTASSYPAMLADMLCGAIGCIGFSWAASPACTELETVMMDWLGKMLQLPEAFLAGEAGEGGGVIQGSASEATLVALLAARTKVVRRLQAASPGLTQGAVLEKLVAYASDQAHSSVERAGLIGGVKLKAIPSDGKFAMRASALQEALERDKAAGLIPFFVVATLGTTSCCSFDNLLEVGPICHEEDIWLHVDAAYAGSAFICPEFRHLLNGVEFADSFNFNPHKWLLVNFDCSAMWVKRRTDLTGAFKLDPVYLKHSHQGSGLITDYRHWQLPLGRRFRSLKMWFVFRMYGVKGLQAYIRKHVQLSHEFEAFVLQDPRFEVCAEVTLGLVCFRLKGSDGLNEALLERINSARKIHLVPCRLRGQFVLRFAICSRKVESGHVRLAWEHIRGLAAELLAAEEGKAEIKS
experimentalProtocol: Substrate screen for tryptophan decarboxylation, SynAAAD
Format: biochemical
Set-up: key: +: a clear ninhydrin-positive spot at the Rf of standard tryptophan derivatives after 16-65 h; (+): a weak spot in the product region; −: no product observed; NR: experiment not run
runConditions: tryptophan derivative, PLP, pH 7.5, 37° C.
readout: SynAAAD (decarboxylation substrate screen)

[[record]]
compound = "NC(Cc1c[nH]c2ccc(F)cc12)C(=O)O (racemic) [DL-5-fluoro-trp]"
datavalue = "(+)"

[[record]]
compound = "Cc1cccc2c(CC(N)C(=O)O)c[nH]c12 (racemic) [DL-7-methyl-trp]"
datavalue = "(+)"

[[record]]
compound = "NC(Cc1c[nH]c2cc(F)ccc12)C(=O)O (racemic) [DL-6-fluoro-trp]"
datavalue = "−"

[[record]]
compound = "NC(Cc1c[nH]c2cccc(F)c12)C(=O)O (racemic) [DL-4-fluoro-trp]"
datavalue = "(+)"

[[record]]
compound = "Cc1cccc2[nH]cc(CC(N)C(=O)O)c12 (racemic) [DL-4-methyl-trp]"
datavalue = "+"

[[record]]
compound = "COC(=O)Nc1ccc2[nH]cc(C[C@H](N)C(=O)O)c2c1 [L-5-(methoxycarbonyl)-amino-trp, 5-(Methoxycarbonyl)amino-L-tryptophan]"
datavalue = "+"

[[record]]
compound = "COc1ccc2[nH]cc(CC(N)C(=O)O)c2c1 (racemic) [DL-5-methoxy-trp]"
datavalue = "(+)"


Next compound, please.
Answer with reported SynAAAD (decarboxylation substrate screen) of NC(Cc1c[nH]c2ncccc12)C(=O)O (racemic) [DL-7-aza-trp] −
